inhibition at 20 µM overview
- TARGET UNDER TEST: KRas G12C mutant (Homo sapiens (Human), UniProt P01116, G12C)
- Sequence (P01116-2 other isoform, or with tags, fused parts or gaps G12C): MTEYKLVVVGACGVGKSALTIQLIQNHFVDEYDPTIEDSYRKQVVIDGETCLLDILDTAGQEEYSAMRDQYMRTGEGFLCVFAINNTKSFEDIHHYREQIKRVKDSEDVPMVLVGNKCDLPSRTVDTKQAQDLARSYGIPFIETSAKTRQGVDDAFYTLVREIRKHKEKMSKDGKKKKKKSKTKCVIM
- EXPERIMENT SUMMARY: Ras GTP binding domain inhibition assay (labeled GTP)
- MEASUREMENT CONDITIONS: 20 μM compound; KRas G12C; read-out: % Inhibition at 20 μM of K-Ras mutant and wild-type protein, KRas G12C

Exercise: Entry under review: Cn1ccnc1-c1nc(NCCOC2CC2)c2c(-c3ccccc3)c(-c3ccccc3)sc2n1 [drawing 3576] . Reported inhibition at 20 µM?
Key: 25 to 50%

Exercise: Entry under review: CCOCCNc1nc(-c2nccn2C)nc2sc(-c3ccccc3)c(-c3ccccc3)c12 [drawing 3575] . Reported inhibition at 20 µM?
Key: 51 to 75%

Exercise: Entry under review: COC(C)(C)c1ccc(-c2csc3c(O)nc(-c4nccn4C)nc23)cc1 [drawing 3618] . Reported inhibition at 20 µM?
Key: 0%

Exercise: Entry under review: Cc1nn(C(C)C)cc1-c1csc2c(O)nc(-c3ccccn3)nc12 [drawing 3506] . Reported inhibition at 20 µM?
Key: 25 to 50%

Exercise: Entry under review: COCCNc1nc(-c2nccn2C)nc2sc(C3CCOCC3)c(-c3ccccc3)c12 [drawing 3590] . Reported inhibition at 20 µM?
Key: 25 to 50%

Exercise: Entry under review: Cc1sc2c(O)nc(-c3ccccn3)nc2c1-c1cccnc1 [drawing 3468] . Reported inhibition at 20 µM?
Key: 25 to 50%

Exercise: Entry under review: COC1CCN(c2nc(-c3nccn3C)nc3sc(-c4ccccc4)c(-c4ccccc4)c23)C1 (stereo not shown) [drawing 3571] . Reported inhibition at 20 µM?
Key: 1 to 25%

###

- TARGET UNDER TEST: KRas G12D/Q61H double mutant (Homo sapiens (Human), UniProt P01116, G12D/Q61H)
- Sequence (P01116-2 other isoform, or with tags, fused parts or gaps G12D/Q61H): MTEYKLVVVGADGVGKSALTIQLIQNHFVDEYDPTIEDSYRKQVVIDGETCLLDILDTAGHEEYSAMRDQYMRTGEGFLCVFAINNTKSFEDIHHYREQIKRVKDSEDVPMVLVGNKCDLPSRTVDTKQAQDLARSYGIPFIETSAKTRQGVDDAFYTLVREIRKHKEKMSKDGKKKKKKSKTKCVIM
- EXPERIMENT SUMMARY: Ras GTP binding domain inhibition assay (labeled GTP)
- MEASUREMENT CONDITIONS: 20 μM; read-out: KRas G12D Q61H % Inh.
QUANTITY MEASURED: inhibition at 20 µM

Past entries and their recorded results:
COMPOUND	inhibition at 20 µM
O=C(c1ccc2ccccc2n1)N1CCCc2c(O)nc(-c3ccccn3)nc21 [drawing 2642]	76 to 100%
FC(F)(F)Sc1ccc(Cc2ccc(SC(F)(F)F)cc2)cc1 [drawing 2616]	51 to 75%

Let us examine a further case.
Exercise: Entry under review: Cc1nc(-c2ccccn2)nc(O)c1CCC(=O)NC1CCc2ccccc21 (stereo not drawn) [drawing 2597] . Reported inhibition at 20 µM?
Key: 25 to 50%

###

- TARGET UNDER TEST: Rho-A (Homo sapiens (Human))
- Sequence (P61586 whole entry): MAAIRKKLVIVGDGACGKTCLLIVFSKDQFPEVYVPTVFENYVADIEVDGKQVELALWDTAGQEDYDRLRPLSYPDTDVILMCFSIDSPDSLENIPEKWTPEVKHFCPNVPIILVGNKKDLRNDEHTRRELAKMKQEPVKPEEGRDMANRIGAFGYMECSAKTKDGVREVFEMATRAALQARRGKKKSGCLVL
- EXPERIMENT SUMMARY: Rho inhibition assay (labeled GTP)
- Type: binding
- MEASUREMENT CONDITIONS: read-out: Rho-A % Inh.
inhibition at 20 µM overview

Past entries and their recorded results:
COMPOUND	TARGET UNDER TEST	QUANTITY MEASURED	DATA VALUE
Oc1nc(-c2ccccn2)nc2c(-c3cncc(C(F)(F)F)c3)csc12 [drawing 3784]	Rho-A (Homo sapiens (Human))	inhibition at 20 µM	25 to 50%
COc1nc(-c2ccccn2)nc(Oc2cccc(C(F)(F)F)c2)c1OC [drawing 3870]	Rho-A (Homo sapiens (Human))	inhibition at 20 µM	0%
O=C(c1csc2c(O)nc(-c3ccccn3)nc12)N1CC2CC1CN2c1ccccc1 (stereo not drawn) [drawing 3710]	Rho-A (Homo sapiens (Human))	inhibition at 20 µM	76 to 100%

Exercise: Entry under review: COc1ccc(CCN(C)C(=O)c2csc3nc(-c4ccccn4)nc(N4CCOCC4)c23)cn1 [drawing 3635] . Reported inhibition at 20 µM?
Key: 25 to 50%

Exercise: Entry under review: COCCNc1nc(-c2nccn2C)nc2sc(-c3ccccc3)c(-c3ccc(OC)cc3)c12 [drawing 3907] . Reported inhibition at 20 µM?
Key: 51 to 75%

Exercise: Entry under review: CC(C)c1csc2c(O)nc(-c3ccccn3)nc12 [drawing 3806] . Reported inhibition at 20 µM?
Key: 51 to 75%

Exercise: Entry under review: CC(C)COc1ccc(-c2csc3c(O)nc(-c4nccn4C)nc23)cn1 [drawing 3930] . Reported inhibition at 20 µM?
Key: 51 to 75%

Exercise: Entry under review: COc1ccc(COC[C@H]2OC(c3csc4c(=O)[nH]c(-c5ccccn5)nc34)[C@H](O)[C@@H]2O)cc1 (stereo partly drawn) . Reported inhibition at 20 µM?
Key: 76 to 100%

###

inhibition at 20 µM overview
- TARGET UNDER TEST: Rac-1 (Homo sapiens (Human), UniProt P63000)
- EXPERIMENT SUMMARY: Rac inhibition assay (labeled GTP)
- Assay type: binding
- MEASUREMENT CONDITIONS: read-out: Rac-1 % Inh.

Past entries and their recorded results:
COMPOUND	QUANTITY MEASURED	DATA VALUE
COc1cnc(CNC(=O)c2csc3nc(-c4ccccn4)nc(N)c23)[nH]c1=O [drawing 3835]	inhibition at 20 µM	25 to 50%
O=C(COCc1cccnc1)Nc1nc(-c2ccccn2)nc2sccc12 [drawing 3701]	inhibition at 20 µM	76 to 100%
O=C(COCc1ccncc1)Nc1nc(-c2ccccn2)nc2sccc12 [drawing 3700]	inhibition at 20 µM	76 to 100%

Exercise: Entry under review: Oc1nc(-c2ccccn2)nc2c(-c3ccc(F)cc3F)csc12 [drawing 3743] . Reported inhibition at 20 µM?
Key: 51 to 75%

Exercise: Entry under review: COCCNc1nc(-c2nccn2C)nc2sc(-c3ccc(OC)cc3)c(-c3ccccc3)c12 [drawing 3915] . Reported inhibition at 20 µM?
Key: 25 to 50%

Exercise: Entry under review: COc1ccccc1C1CN(C(=O)c2csc3c(O)nc(-c4ccccn4)nc23)CCN1 (stereo not shown) [drawing 3661] . Reported inhibition at 20 µM?
Key: 1 to 25%

Exercise: Entry under review: COc1ccnc(-c2nc(O)c3c(Br)csc3n2)c1 [drawing 3632] . Reported inhibition at 20 µM?
Key: 25 to 50%

Exercise: Entry under review: O=C(NCCc1ccnc(O)c1)c1csc2nc(-c3ccccn3)nc(N3CCOCC3)c12 [drawing 3672] . Reported inhibition at 20 µM?
Key: 25 to 50%

Exercise: Entry under review: O=C(c1csc2c(O)nc(-c3ccccn3)nc12)N1CCN(c2cccc(F)c2)CC1 [drawing 3642] . Reported inhibition at 20 µM?
Key: 76 to 100%

Exercise: Entry under review: COCCNc1nc(-c2nccn2C)nc2sc(-c3ccccc3)c(-c3ccccn3)c12 [drawing 3940] . Reported inhibition at 20 µM?
Key: 25 to 50%

Exercise: Entry under review: O=C(NCCc1cncs1)c1csc2nc(-c3ccccn3)nc(N3CCOCC3)c12 [drawing 3638] . Reported inhibition at 20 µM?
Key: 51 to 75%

Exercise: Entry under review: CCOCCOc1nc(-c2nccn2C)nc2sc(-c3ccccc3)c(-c3ccccc3)c12 [drawing 3890] . Reported inhibition at 20 µM?
Key: 1 to 25%

Exercise: Entry under review: CC(c1ccccc1)N1CCN(C(=O)c2csc3c(O)nc(-c4ccccn4)nc23)CC1 (stereo not shown) [drawing 3693] . Reported inhibition at 20 µM?
Key: 76 to 100%

Exercise: Entry under review: Cn1ccnc1-c1nc(O)c2scc(-c3ccccc3Cl)c2n1 [drawing 3933] . Reported inhibition at 20 µM?
Key: 51 to 75%

Exercise: Entry under review: Oc1nc(-c2ccccn2)nc2c(-c3ccnn3-c3ccccn3)csc12 [drawing 3776] . Reported inhibition at 20 µM?
Key: 25 to 50%

Exercise: Entry under review: Oc1nc(-c2ccccn2)nc2scc(Br)c12 [drawing 3623] . Reported inhibition at 20 µM?
Key: 76 to 100%

Exercise: Entry under review: Cc1sc2c(O)nc(-c3nccn3C)nc2c1-c1ccc(F)cc1F [drawing 3939] . Reported inhibition at 20 µM?
Key: 1 to 25%

Exercise: Entry under review: Oc1nc(-c2ccccn2)nc2c(C3CCCCC3)csc12 [drawing 3830] . Reported inhibition at 20 µM?
Key: 25 to 50%

Exercise: Entry under review: N#Cc1ccc2c(c1)CCCC2C(=O)Nc1ccnc(-c2ccccn2)n1 (stereo not shown) [drawing 3727] . Reported inhibition at 20 µM?
Key: 51 to 75%

Exercise: Entry under review: OCC1(c2ccc(-c3nc(-c4ccccn4)nc(O)c3Oc3ccccc3)cc2)CC1 [drawing 3852] . Reported inhibition at 20 µM?
Key: 51 to 75%

Exercise: Entry under review: Oc1nc(-c2ccccn2)nc2c(-c3ccccc3)csc12 [drawing 3625] . Reported inhibition at 20 µM?
Key: 51 to 75%

Exercise: Entry under review: COC(=O)c1sc2c(O)nc(-c3ccccn3)nc2c1C [drawing 3795] . Reported inhibition at 20 µM?
Key: 51 to 75%
